Data origin, for the record: patent US20240301052A1

assay_system: T1, human SLC34A2 (human, UniProt O95436 1-690)
T1 sequence (looked up): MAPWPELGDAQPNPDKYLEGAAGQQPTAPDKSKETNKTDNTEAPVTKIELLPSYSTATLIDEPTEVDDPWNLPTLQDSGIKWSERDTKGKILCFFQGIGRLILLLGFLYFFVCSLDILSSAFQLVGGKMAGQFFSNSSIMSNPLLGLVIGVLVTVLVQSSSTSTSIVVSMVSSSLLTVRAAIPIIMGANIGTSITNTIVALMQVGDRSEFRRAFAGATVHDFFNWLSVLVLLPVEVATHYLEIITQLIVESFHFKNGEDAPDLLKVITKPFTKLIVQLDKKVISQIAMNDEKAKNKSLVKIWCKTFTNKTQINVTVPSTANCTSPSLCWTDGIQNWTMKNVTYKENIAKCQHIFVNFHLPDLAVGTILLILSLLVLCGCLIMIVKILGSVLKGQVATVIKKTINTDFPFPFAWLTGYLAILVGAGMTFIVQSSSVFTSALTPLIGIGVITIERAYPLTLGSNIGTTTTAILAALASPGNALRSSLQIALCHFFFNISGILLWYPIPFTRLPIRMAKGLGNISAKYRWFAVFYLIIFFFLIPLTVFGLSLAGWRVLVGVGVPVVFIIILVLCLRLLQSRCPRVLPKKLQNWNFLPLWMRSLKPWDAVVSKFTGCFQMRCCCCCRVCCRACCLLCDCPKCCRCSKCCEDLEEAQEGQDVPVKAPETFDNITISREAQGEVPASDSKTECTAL
assay_protocol: cell-based or functional assay
measured_quantity: ADCC reporter Top (MFI)
// units = MFI; emit number, no label

91C9F1.p1.z10 hIgG1 (antibody, V domains shown, humanized hIgG1) VH: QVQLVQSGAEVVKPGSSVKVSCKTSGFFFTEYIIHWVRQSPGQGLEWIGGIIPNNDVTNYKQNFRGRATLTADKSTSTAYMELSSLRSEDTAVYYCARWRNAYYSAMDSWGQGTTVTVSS VL: DIQMTQSPSSLSTSVGDRVTITCTASQDVGTAVAWYQQKPGKSPKLLIYWASTRHTGVPERFSGSGSGTDFTLTISSLQPEDVATYFCQQYRTSPLTFGGGTKVEIK
138000
30H9B8F9.p1.z9 hIgG1 (antibody, V domains shown, humanized hIgG1) VH: QVQLVQSGAEVVKPGASVKVSCKTSGYTFTTNNMHWVRQAPGQGLEWIGAIYPGSGATAYNQKFKGRVTLTADKSTSTAYMELSSLRSEATAVYYCARGMYGHGAMDYWGQGTLVTVSS VL: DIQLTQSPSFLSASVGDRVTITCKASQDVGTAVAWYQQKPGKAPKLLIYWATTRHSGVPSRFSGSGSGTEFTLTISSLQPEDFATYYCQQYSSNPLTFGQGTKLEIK
145000

Consider now this further binder.
## Input Quick one: ADCC reporter Top (MFI) for 91C9F1.p1.z6 hIgG1 (antibody, V domains shown, humanized hIgG1) VH: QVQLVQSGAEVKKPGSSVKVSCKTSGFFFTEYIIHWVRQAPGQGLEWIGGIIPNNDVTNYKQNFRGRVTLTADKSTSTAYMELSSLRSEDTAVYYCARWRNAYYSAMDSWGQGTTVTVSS VL: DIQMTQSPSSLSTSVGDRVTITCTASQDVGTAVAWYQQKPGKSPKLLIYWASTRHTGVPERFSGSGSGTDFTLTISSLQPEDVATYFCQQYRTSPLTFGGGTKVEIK ?
## Output 125000
